System: Mus musculus
procedure_details: Antinociceptive activity in 5 mg/kg naloxone pretreated Swiss albino mouse assessed as protection against acetic acid-induced writhing at 100 mg/kg, ip administered 30 mins before acetic acid challenge
Assay type: functional
Quick rule: Activity of at least 10% means condition met, below that means condition not met.

Worked cases, answers included:
COc1ccc(C2CC(c3ccccc3)=NN2C(=O)CSc2nc3cc(Cl)ccc3o2)cc1 (stereo unspecified) ... condition not met
Cc1ccc(C2=NN(C(=O)CSc3nc4ccccc4[nH]3)C(c3ccccc3)C2)cc1C (stereo unspecified) ... condition met

Given the entry COc1ccc(C2CC(c3ccccc3)=NN2C(=O)CSc2nc3ccccc3[nH]2)cc1 (stereo unspecified) , answer whether its Activity meets or surpasses 10%.
condition met

Given the entry O=C(CSc1nc2cc(Cl)ccc2o1)N1N=C(c2ccccc2)CC1c1ccccc1 (stereo unspecified) , answer whether its Activity meets or surpasses 10%.
condition not met

Given the entry Cc1ccc(C2=NN(C(=O)CSc3nc4cc(Cl)ccc4o3)C(c3ccccc3)C2)cc1C (stereo unspecified) , answer whether its Activity meets or surpasses 10%.
condition met

Given the entry O=C(CSc1nc2ccccc2[nH]1)N1N=C(c2ccccc2)CC1c1ccccc1 (stereo unspecified) , answer whether its Activity meets or surpasses 10%.
condition met
